# System: brain
# procedure_details: Matured TTM-001 and TTM-002 variants, NGS enrichment in mouse brain
# Assay type: in vivo, mice
# experimental_setup: NGS fold-enrichment, brain of mice, relative to AAV9 control
Classification field: enter true for Fold Enrichment relative to AAV9, Brain (Mouse) values not below 100 fold, false for values below it.

Here are 4 sequences together with their reported answers.
[Q] Answer whether Fold Enrichment relative to AAV9, Brain (Mouse) of KTINGSGSPHSKAQPAKT is greater than or equal to 100 fold.
[A] true

[Q] Answer whether Fold Enrichment relative to AAV9, Brain (Mouse) of KTEARSGSPHSKAQNQQT is greater than or equal to 100 fold.
[A] false

[Q] Answer whether Fold Enrichment relative to AAV9, Brain (Mouse) of KTIIGSGSPHSKAQNRHT is greater than or equal to 100 fold.
[A] true

[Q] Answer whether Fold Enrichment relative to AAV9, Brain (Mouse) of KTINGSGSPHSKAQHRIT is greater than or equal to 100 fold.
[A] true

More entries:
[Q] Answer whether Fold Enrichment relative to AAV9, Brain (Mouse) of KVINGSGSPHSKGQNQQT (peptide inserted in AAV capsid) is greater than or equal to 100 fold.
[A] false

[Q] Answer whether Fold Enrichment relative to AAV9, Brain (Mouse) of KTVNGSGSPHSKARDQQT is greater than or equal to 100 fold.
[A] true

[Q] Answer whether Fold Enrichment relative to AAV9, Brain (Mouse) of KTERTSGSPHSKAQNQQT is greater than or equal to 100 fold.
[A] true

[Q] Answer whether Fold Enrichment relative to AAV9, Brain (Mouse) of KTDKVSGSPHSKAQNQQT is greater than or equal to 100 fold.
[A] true
